System: Enterococcus
Assay: Activity of Enterococcus APH(3')-3a
endpoint_label: kcat (s⁻¹)
Provide only the numeric value, understood in s⁻¹.

Look over these answered cases.
NC[C@@H]1O[C@H](O[C@H]2[C@@H](O)[C@H](O[C@@H]3[C@@H](O)[C@H](N)C[C@H](N)[C@H]3O[C@H]3O[C@H](CN)[C@@H](O)[C@H](O)[C@H]3N)O[C@@H]2Cn2cc(C3CCCCN3)nn2)[C@H](N)[C@@H](O)[C@@H]1O (stereo not given in full) ... 0.27
CCCCCCCCCCCCCCCC(=O)NC[C@H]1O[C@@H](O[C@@H]2[C@@H](O)[C@H](N)C[C@H](N)[C@H]2O[C@H]2O[C@H](CN)[C@@H](O)[C@H](O)[C@H]2N)[C@H](O)[C@@H]1O[C@H]1O[C@@H](CN)[C@@H](O)[C@H](O)[C@H]1N ... 0.42
CCCCCCCCCCCCCCCCCC(=O)NC[C@H]1O[C@@H](O[C@@H]2[C@@H](O)[C@H](N)C[C@H](N)[C@H]2O[C@H]2O[C@H](CN)[C@@H](O)[C@H](O)[C@H]2N)[C@H](O)[C@@H]1O[C@H]1O[C@@H](CN)[C@@H](O)[C@H](O)[C@H]1N ... 0.42
NCC[C@H](O)C(=O)NC[C@H]1O[C@@H](O[C@@H]2[C@@H](O)[C@H](N)C[C@H](N)[C@H]2O[C@H]2O[C@H](CN)[C@@H](O)[C@H](O)[C@H]2N)[C@H](O)[C@@H]1O[C@H]1O[C@@H](CN)[C@@H](O)[C@H](O)[C@H]1N ... 0.47
CCCCCCc1cn(C[C@H]2O[C@@H](O[C@@H]3[C@@H](O)[C@H](N)C[C@H](N)[C@H]3O[C@H]3O[C@H](CN)[C@@H](O)[C@H](O)[C@H]3N)[C@H](O)[C@@H]2O[C@H]2O[C@@H](CN)[C@@H](O)[C@H](O)[C@H]2N)nn1 ... 0.38

Now look at this one.
Qu. Could you share what kcat was measured for NC[C@@H]1O[C@H](O[C@H]2[C@@H](O)[C@H](O[C@@H]3[C@@H](O)[C@H](N)C[C@H](N)[C@H]3O[C@H]3O[C@H](CN)[C@@H](O)[C@H](O)[C@H]3N)O[C@@H]2CNC(=O)[C@H](N)CO)[C@H](N)[C@@H](O)[C@@H]1O , tested on Enterococcus?
Ans. 0.47
